Data origin: ChEMBL document CHEMBL1772952

Organism: Rattus norvegicus
Assay: Selectivity ratio of Ki for DAT in rat striatum to Ki for SERT in rat cerebral cortex
Format: tissue-based

{"structure_smiles": "c1ccc(C(c2ccccc2)[C@@H]2CC[C@H](NCc3ccc[nH]3)CO2)cc1", "Ratio Ki": 0.31}
{"structure_smiles": "c1ccc(C(c2ccccc2)[C@@H]2CC[C@H](NCc3ccccn3)CO2)cc1", "Ratio Ki": 0.43}
{"structure_smiles": "c1ccc(C(c2ccccc2)[C@@H]2CC[C@H](NCc3ccncc3)CO2)cc1", "Ratio Ki": 0.03}

###

Biological target: Sodium-dependent serotonin transporter (Rattus norvegicus, UniProt P31652)
Sequence (P31652 whole entry): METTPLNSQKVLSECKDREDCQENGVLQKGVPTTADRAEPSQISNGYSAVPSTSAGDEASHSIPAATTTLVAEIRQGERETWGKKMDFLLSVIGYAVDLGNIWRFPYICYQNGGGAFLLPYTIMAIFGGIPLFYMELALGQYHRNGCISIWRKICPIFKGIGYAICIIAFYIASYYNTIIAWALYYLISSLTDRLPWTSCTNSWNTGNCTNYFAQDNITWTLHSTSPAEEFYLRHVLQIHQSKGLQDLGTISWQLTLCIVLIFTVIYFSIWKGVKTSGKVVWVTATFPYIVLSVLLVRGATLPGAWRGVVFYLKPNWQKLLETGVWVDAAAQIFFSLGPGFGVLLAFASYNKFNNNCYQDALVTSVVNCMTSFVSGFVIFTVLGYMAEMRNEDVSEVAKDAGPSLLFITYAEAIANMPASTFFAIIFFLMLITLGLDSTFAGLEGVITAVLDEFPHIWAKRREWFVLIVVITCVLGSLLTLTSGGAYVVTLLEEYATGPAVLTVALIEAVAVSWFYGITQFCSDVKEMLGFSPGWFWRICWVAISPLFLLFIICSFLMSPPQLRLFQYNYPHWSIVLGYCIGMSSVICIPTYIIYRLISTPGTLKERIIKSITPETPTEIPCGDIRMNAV
pKi: −log10 of the molar value.
Below, each entry is listed with its recorded pKi.
outcome_measure: pKi

{"structure_smiles": "O[C@H](CN[C@H]1CC[C@@H](C(c2ccccc2)c2ccccc2)OC1)c1ccccc1", "reported_result": 6.10}
{"structure_smiles": "COc1cccc([C@@H](O)CN[C@H]2CC[C@@H](C(c3ccccc3)c3ccccc3)OC2)c1", "reported_result": 5.96}
{"structure_smiles": "O[C@@H](CN[C@H]1CC[C@@H](C(c2ccccc2)c2ccccc2)OC1)c1ccccc1", "reported_result": 6.03}
{"structure_smiles": "COc1cccc([C@H](O)CN[C@H]2CC[C@@H](C(c3ccccc3)c3ccccc3)OC2)c1", "reported_result": 6.19}
{"structure_smiles": "O[C@H](CN[C@H]1CC[C@@H](C(c2ccccc2)c2ccccc2)OC1)c1ccc(F)cc1", "reported_result": 6.08}
